// data source = patent US9902702B2

Observed Property: IC50

Prompt: Kindly state the measured IC50 obtained for O=C(NC1CC2(C1)CC(c1n[nH]c(=O)c3ccccc13)C2)c1cnn2cc(OCCN3CCC(F)(F)C3)ccc12 (stereo not shown) with ROCK2 (Homo sapiens).
Sequence (O75116 whole entry, species assumed): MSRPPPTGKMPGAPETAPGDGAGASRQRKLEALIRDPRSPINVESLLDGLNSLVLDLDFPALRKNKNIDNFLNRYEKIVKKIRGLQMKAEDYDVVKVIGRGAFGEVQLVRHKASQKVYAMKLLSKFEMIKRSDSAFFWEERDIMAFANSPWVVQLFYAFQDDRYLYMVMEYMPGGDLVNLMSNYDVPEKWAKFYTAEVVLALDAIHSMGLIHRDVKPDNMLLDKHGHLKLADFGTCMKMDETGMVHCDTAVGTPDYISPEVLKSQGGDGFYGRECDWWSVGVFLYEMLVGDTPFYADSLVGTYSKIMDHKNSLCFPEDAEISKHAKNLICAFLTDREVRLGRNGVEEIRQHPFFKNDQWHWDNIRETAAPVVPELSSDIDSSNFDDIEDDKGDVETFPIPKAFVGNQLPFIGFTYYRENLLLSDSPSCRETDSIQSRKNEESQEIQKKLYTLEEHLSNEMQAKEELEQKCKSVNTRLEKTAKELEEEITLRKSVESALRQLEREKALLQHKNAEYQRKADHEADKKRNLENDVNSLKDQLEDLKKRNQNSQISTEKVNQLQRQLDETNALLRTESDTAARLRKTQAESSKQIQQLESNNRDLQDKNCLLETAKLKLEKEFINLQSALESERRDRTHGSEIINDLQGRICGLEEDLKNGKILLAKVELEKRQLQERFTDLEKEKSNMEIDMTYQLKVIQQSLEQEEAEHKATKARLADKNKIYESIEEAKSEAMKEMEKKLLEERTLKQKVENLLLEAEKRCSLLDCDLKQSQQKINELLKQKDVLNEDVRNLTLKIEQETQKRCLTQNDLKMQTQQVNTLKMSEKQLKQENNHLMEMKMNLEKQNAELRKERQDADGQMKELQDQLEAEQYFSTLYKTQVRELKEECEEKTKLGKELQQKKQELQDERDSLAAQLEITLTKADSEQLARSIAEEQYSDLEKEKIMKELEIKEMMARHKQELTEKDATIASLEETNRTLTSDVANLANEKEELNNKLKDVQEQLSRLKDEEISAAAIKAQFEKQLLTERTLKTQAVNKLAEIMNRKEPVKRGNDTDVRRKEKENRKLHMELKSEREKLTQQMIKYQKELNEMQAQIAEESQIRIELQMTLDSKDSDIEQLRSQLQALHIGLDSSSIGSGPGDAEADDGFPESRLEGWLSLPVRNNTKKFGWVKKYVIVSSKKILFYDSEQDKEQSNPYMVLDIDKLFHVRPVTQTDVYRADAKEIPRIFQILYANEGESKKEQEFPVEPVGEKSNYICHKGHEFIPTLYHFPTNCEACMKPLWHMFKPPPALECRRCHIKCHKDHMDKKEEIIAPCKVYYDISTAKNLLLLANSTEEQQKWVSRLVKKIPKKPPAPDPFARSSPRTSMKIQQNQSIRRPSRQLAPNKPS
Completion: 0.2 to 2 nM

Prompt: Kindly state the measured IC50 obtained for O=C(NC1CC2(C1)CC(c1n[nH]c(=O)c3ccccc13)C2)N1Cc2cccnc2C1 (stereo not shown) with ROCK2 (Homo sapiens).
Completion: 15.1 to 100 nM

Prompt: Kindly state the measured IC50 obtained for CC(C)(O)Cn1nc(C(=O)NC2CC3(C2)CC(c2n[nH]c(=O)c4ccccc24)C3)c2ccc(C=Cc3ccccc3)cc21 (stereo not shown) with ROCK2 (Homo sapiens).
Completion: 5.1 to 15 nM

Prompt: Kindly state the measured IC50 obtained for COCCOc1ccc2c(C(=O)NC3CC4(C3)CC(c3n[nH]c(=O)c5ccccc35)C4)cnn2c1 (stereo not shown) with ROCK2 (Homo sapiens).
Completion: 0.2 to 2 nM

Prompt: Kindly state the measured IC50 obtained for [H][C@]1(c2n[nH]c(=O)c3ccccc32)C[C@]2(C[C@@H](NC(=O)c3cnc4cc(C(F)(F)F)ccn34)C2)C1 (stereo partly shown) with ROCK2 (Homo sapiens).
Completion: 2.01 to 5 nM

Prompt: Kindly state the measured IC50 obtained for COc1ccccc1-n1nnc(C(=O)NC2CC3(C2)CC(c2n[nH]c(=O)c4ccccc24)C3)c1C (stereo not shown) with ROCK2 (Homo sapiens).
Completion: 15.1 to 100 nM

Prompt: Kindly state the measured IC50 obtained for [H][C@]1(c2n[nH]c(=O)c3ccccc32)C[C@]2(C[C@@H](NC(=O)c3ccc(-c4cc[nH]n4)cc3)C2)C1 (stereo partly shown) with ROCK2 (Homo sapiens).
Completion: 15.1 to 100 nM

====

Counter-ions that a name gives are not always drawn.
Give measured IC50 for each item. Keep answers brief.

Prompt: Kindly state the measured IC50 obtained for O=C(NC1CC2(C1)CC(c1n[nH]c(=O)c3ccccc13)C2)c1cnn2cc(CCCO)ccc12 (centres unmarked) with UniProt:O75116.
Completion: 5.1 to 15 nM

Prompt: Kindly state the measured IC50 obtained for CC(C)(C)n1cc(-c2ccc3c(c2)CN(C(=O)NC2CC4(C2)CC(c2n[nH]c(=O)c5ccccc25)C4)C3)cn1 (centres unmarked) with UniProt:O75116.
Completion: 5.1 to 15 nM

Prompt: Kindly state the measured IC50 obtained for [H][C@]1(c2n[nH]c(=O)c3ccccc32)C[C@]2(C[C@@H](NC(=O)c3ccc(-c4noc(C)n4)cc3)C2)C1 (some centres unmarked) with UniProt:O75116.
Completion: 15.1 to 100 nM

Prompt: Kindly state the measured IC50 obtained for O=C(NC1CC2(C1)CC(c1n[nH]c(=O)c3ccccc13)C2)C1Cc2cc(Br)ccc2N1 (centres unmarked) [Example 468, TFA] with UniProt:O75116.
Completion: 100 to 2100 nM

Prompt: Kindly state the measured IC50 obtained for COc1ccc2c(C(=O)NC3CC4(C3)CC(c3n[nH]c(=O)c5ccccc35)C4)cnn2c1 (centres unmarked) with UniProt:O75116.
Completion: 0.2 to 2 nM

Prompt: Kindly state the measured IC50 obtained for [H][C@]1(c2n[nH]c(=O)c3ccccc32)C[C@@]2(C[C@H](NC(=O)c3cc4c(Cl)cccc4n3C)C2)C1 (some centres unmarked) with UniProt:O75116.
Completion: 2.01 to 5 nM

Prompt: Kindly state the measured IC50 obtained for [2H]C([2H])([2H])n1cc(-c2ccc3c(c2)CN(C(=O)NC2CC4(C2)CC(c2n[nH]c(=O)c5ccccc25)C4)C3)cn1 (centres unmarked) with UniProt:O75116.
Completion: 5.1 to 15 nM

Prompt: Kindly state the measured IC50 obtained for O=C(NC1CC2(C1)CC(c1n[nH]c(=O)c3ccccc13)C2)c1cnn2cc(OCCC(F)(F)F)ccc12 (centres unmarked) with UniProt:O75116.
Completion: 0.2 to 2 nM

Prompt: Kindly state the measured IC50 obtained for CC(C)(O)Cn1cc(C(=O)NC2CC3(C2)CC(c2n[nH]c(=O)c4ccccc24)C3)c2cccnc21 (centres unmarked) with UniProt:O75116.
Completion: 5.1 to 15 nM

Prompt: Kindly state the measured IC50 obtained for Cn1cc(-c2ccc3c(c2)CN(C(=O)NC2CC4(C2)CC(c2n[nH]c(=O)c5ccccc25)C4)C3)cn1 (centres unmarked) with UniProt:O75116.
Completion: 5.1 to 15 nM

Prompt: Kindly state the measured IC50 obtained for [H][C@]1(c2n[nH]c(=O)c3ccccc32)C[C@]2(C[C@@H](NC(=O)c3cnc4cc(N(C)CC(C)(C)O)ccn34)C2)C1 (some centres unmarked) with UniProt:O75116.
Completion: 2.01 to 5 nM

Prompt: Kindly state the measured IC50 obtained for [H][C@]1(c2n[nH]c(=O)c3ccccc32)C[C@]2(C[C@@H](NC(=O)c3ccc(-c4cn[nH]c4)cc3)C2)C1 (some centres unmarked) with UniProt:O75116.
Completion: 5.1 to 15 nM

Prompt: Kindly state the measured IC50 obtained for O=C(NC1CC2(C1)CC(c1n[nH]c(=O)c3ccccc13)C2)c1nn(-c2cccc(Cl)c2)c2c1CCNC2=O (centres unmarked) with UniProt:O75116.
Completion: 15.1 to 100 nM

Prompt: Kindly state the measured IC50 obtained for [H][C@]1(c2n[nH]c(=O)c3ccccc32)C[C@]2(C[C@@H](NC(=O)c3cc4ccc(OC)cc4n3C)C2)C1 (some centres unmarked) with UniProt:O75116.
Completion: 5.1 to 15 nM
